- Tested system: T1, EsCas13d, nuclease-dead (Eubacterium siraeum, UniProt B0MS50, R295A;H300A;R849A;H854A)
- T1 sequence: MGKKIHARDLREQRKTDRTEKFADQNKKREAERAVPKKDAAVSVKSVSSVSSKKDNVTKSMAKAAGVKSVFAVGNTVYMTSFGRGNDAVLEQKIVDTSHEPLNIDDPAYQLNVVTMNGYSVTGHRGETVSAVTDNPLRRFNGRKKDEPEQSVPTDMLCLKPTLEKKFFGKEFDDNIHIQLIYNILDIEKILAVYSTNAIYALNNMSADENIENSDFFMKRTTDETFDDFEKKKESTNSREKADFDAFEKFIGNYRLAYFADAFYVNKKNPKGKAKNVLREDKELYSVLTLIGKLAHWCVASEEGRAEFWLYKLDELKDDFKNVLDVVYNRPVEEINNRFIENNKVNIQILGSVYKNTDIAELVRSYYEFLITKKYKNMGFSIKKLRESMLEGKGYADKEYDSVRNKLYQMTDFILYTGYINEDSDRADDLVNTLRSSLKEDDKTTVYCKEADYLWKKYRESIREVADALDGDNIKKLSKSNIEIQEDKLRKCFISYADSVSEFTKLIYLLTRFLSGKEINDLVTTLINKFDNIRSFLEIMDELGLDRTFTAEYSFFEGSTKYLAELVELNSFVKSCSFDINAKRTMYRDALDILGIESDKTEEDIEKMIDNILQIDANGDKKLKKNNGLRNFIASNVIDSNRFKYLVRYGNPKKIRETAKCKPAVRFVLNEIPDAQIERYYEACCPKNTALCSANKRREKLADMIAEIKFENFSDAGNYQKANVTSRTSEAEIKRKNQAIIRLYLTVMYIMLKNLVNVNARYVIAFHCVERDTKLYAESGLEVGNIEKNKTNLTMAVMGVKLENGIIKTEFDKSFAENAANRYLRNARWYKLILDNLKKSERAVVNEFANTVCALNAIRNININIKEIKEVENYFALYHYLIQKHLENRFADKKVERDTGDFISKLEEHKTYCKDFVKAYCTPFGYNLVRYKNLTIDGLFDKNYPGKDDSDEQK
- Test description: crRNA (strand 1, pre-loaded); Mg2+; 40 mM Tris-HCl pH 7.5, 150 mM NaCl, 6 mM MgCl2, 1 mM DTT, 0.1% Tween-20, 0.2 mg/ml BSA; 25 C; 10 min per concentration, then washed
- Recorded conditions: tags: His6-TwinStrep-SUMO cleaved; N-terminal SNAP kept (SNAP-Surface 488); label: 3' end held by stalled T7 RNA polymerase
Readout label: Kd (nM)
Numbers only, in nM.

Binder	Kd / nM
target 2 MT 5'PFS AAC 3'PFS CGG (mixed) RNA 1: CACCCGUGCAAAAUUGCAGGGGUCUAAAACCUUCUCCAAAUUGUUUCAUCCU RNA 2: GGGAAUGGAUCCACAUCUACGAAUUCAACAGGAUGAAACAAUUUGGAGAAGCGGAGAUCGGAAGAGCACACGU	3.2
target 1 G13U,C21U (mixed) RNA 1: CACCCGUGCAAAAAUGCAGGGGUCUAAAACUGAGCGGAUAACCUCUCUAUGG RNA 2: GGGAAUGGAUCCACAUCUACGAAUUCGUACUAUAGAGAUGUUAUCCGCUCACCGAGAUCGGAAGAGCACACGU	10.5
target 2 MT 5'PFS AUA 3'PFS AUC (mixed) RNA 1: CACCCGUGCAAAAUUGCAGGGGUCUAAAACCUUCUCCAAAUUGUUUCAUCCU RNA 2: GGGAAUGGAUCCACAUCUACGAAUUCAUAAGGAUGAAACAAUUUGGAGAAGAUCAGAUCGGAAGAGCACACGU	6.1

Alright, here's another binder for you.
The reported value for target 2 MT 5'PFS CAU 3'PFS AGG (mixed) RNA 1: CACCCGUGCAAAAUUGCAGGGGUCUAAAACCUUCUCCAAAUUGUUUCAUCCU RNA 2: GGGAAUGGAUCCACAUCUACGAAUUCCAUAGGAUGAAACAAUUUGGAGAAGAGGAGAUCGGAAGAGCACACGU in terms of Kd is 2.8
